Target: ITK (Homo sapiens, UniProt Q08881)
Construct: purchased Signalchem I13-11G-10
Sequence (Q08881 1-620): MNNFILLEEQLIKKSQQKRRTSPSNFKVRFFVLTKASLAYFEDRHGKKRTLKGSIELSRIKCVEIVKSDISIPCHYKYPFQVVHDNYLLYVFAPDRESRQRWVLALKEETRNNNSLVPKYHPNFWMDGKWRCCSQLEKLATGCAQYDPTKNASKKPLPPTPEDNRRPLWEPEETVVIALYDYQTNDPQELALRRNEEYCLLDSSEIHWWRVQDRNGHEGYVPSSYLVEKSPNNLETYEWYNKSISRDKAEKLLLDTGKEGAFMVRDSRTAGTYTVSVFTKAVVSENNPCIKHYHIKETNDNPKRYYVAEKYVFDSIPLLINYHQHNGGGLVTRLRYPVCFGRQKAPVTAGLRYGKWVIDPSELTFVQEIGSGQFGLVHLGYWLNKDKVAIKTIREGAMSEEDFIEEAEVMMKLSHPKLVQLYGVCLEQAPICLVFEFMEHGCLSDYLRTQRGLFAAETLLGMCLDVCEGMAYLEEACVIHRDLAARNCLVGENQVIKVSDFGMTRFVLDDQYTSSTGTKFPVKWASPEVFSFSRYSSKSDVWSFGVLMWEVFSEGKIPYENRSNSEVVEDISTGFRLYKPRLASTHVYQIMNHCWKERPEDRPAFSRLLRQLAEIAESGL
Assay: Inhibitory activity against ITK, ADP-Glo Kinase system (Promega)
Format: biochemical
Settings: 1mM ATP; read-out: ITK IC50(nM) 1mM ATP
Experimental: Inhibitory activities against BTK and ITK were measured for the compounds prepared in the above Examples as follows. The inhibitory activities against BTK and ITK were evaluated using 'ADP-Glo™ Kinase system' (Promega Corporation). In the case of this evaluation method, activation was measured by quantifying the amount of ADP produced during the kinase reaction, which was utilized to measure the inhibitory activities against BTK and ITK. […]
READOUT_TYPE: IC50

Below, each entry is followed by its recorded IC50 result.
- MOLECULE: "C=CC(=O)N1CC=C(c2nc(Nc3ncc(C)s3)cc3c2ccn3CC(F)F)C(C)C1 (centres unmarked) [Example 25]"
  IC50: "> 500 nM"
- MOLECULE: "C=CC(=O)N1CC(C)(Oc2nc(Nc3ncc(C)s3)cc3c2ccn3C(C)C)C1 [Example 163]"
  IC50: "≤ 20 nM"
- MOLECULE: "C=CC(=O)N1C[C@H](F)[C@H](Oc2nc(Nc3cccn(C)c3=O)cc3c2ccn3CC(C)C)C1 [Example 199]"
  IC50: "> 500 nM"
- MOLECULE: "Cc1cnc(Nc2cc3c(ccn3CC(C)C)c(O[C@@H]3CN(C(=O)CCl)C[C@@H]3F)n2)s1 [Example 229]"
  IC50: "≤ 20 nM"
- MOLECULE: "C=CC(=O)Nc1cccc(-c2nc(Nc3ncc(C)s3)cc3c2ccn3C(C)C)c1C [Example 58]"
  IC50: "≤ 20 nM"

// fetch IC50; item: C=CC(=O)N1CC[C@H](Oc2nc(Nc3nccc(OC)n3)cc3c2ccn3C(C)C)C1 [Example 183] ; system: ITK (Homo sapiens, UniProt Q08881)
> 500 nM

State measured IC50 of the molecule C=CC(=O)N1CCC[C@H]1COc1nc(Nc2ncc(C)s2)cc2c1ccn2CC(C)CC (some centres unmarked) [Example 221] with ITK (Homo sapiens, UniProt Q08881).
20 to 100 nM

Consider the molecule C=CC(=O)N1C[C@@H](Oc2nc(Nc3ncc(C)s3)cc3c2ccn3CC(C)C)C[C@H]1C [Example 96] tested on ITK (Homo sapiens, UniProt Q08881); state its IC50.
≤ 20 nM

====

Reported IC50 values for a set of molecules
Molecular target: ITK (Homo sapiens, UniProt Q08881)
Construct: purchased Signalchem I13-11G-10
Experiment: Inhibitory activity against ITK, ADP-Glo Kinase system (Promega)
Type: biochemical
Settings: 1mM ATP; read-out: ITK IC50(nM) 1mM ATP
Description: Inhibitory activities against BTK and ITK were measured for the compounds prepared in the above Examples as follows. The inhibitory activities against BTK and ITK were evaluated using 'ADP-Glo™ Kinase system' (Promega Corporation). In the case of this evaluation method, activation was measured by quantifying the amount of ADP produced during the kinase reaction, which was utilized to measure the inhibitory activities against BTK and ITK. […]

// solved cases for IC50 follow
- MOLECULE: "C=CC(=O)N1CC[C@H](Oc2nc(Nc3ncc(C)s3)cc3c2ccn3CC(F)(F)F)C1 [Example 205]"
  SUBJECT_OF_TEST: "ITK (Homo sapiens, UniProt Q08881)"
  READING: "≤ 20 nM"
- MOLECULE: "C=CC(=O)N1CC[C@H](Oc2nc(Nc3cc(OC)ncn3)cc3c2ccn3C(C)C)C1 [Example 103]"
  SUBJECT_OF_TEST: "ITK (Homo sapiens, UniProt Q08881)"
  READING: "20 to 100 nM"
- MOLECULE: "C=CC(=O)N1CCC[C@H](Oc2nc(Nc3ncc(C)s3)cc3c2ccn3CC)C1 [Example 153]"
  SUBJECT_OF_TEST: "ITK (Homo sapiens, UniProt Q08881)"
  READING: "20 to 100 nM"

State the measured IC50 (ITK (Homo sapiens, UniProt Q08881)) of C=CC(=O)N1CC(C)(Oc2nc(Nc3ncc(C)s3)cc3c2ccn3CC2CC2)C1 [Example 167]
≤ 20 nM

Write down measured IC50 (ITK (Homo sapiens, UniProt Q08881)) for this molecule. C=CC(=O)N1CC[C@H](Oc2nc(Nc3ncc(C)s3)cc3c2ccn3CCCF)C1 [Example 190]
≤ 20 nM

Recall the reported IC50 of C=CC(=O)N1CC[C@H](Oc2nc(Nc3ncc(C)s3)cc3c2ccn3CC2CC2)C1 [Example 97] when tested on ITK (Homo sapiens, UniProt Q08881).
≤ 20 nM

Provide IC50, tested on ITK (Homo sapiens, UniProt Q08881), for C=CC(=O)N1CC(C)(Oc2nc(Nc3ncc(C)s3)cc3c2ccn3C2CCCC2)C1 [Example 165] .
≤ 20 nM

Quote IC50 with test system ITK (Homo sapiens, UniProt Q08881) for C=CC(=O)N1CC[C@@H](Oc2nc(Nc3ncc(C)s3)cc3c2ccn3C2CCCC2)C1 [Example 143]
> 500 nM

====

target: ITK (Homo sapiens, UniProt Q08881); construct: purchased Signalchem I13-11G-10; experiment: Inhibitory activity against ITK, ADP-Glo Kinase system (Promega); assay type: biochemical; settings: 1mM ATP; read-out: ITK IC50(nM) 1mM ATP
Below is a list of entries, each paired with its recorded IC50 value.

- COMPOUND_STRUCTURE: "C=CC(=O)Nc1c(C)ccc(-c2nc(Nc3ncc(C)s3)cc3c2ccn3C)c1C"
  SUBJECT_OF_TEST: "ITK (Homo sapiens, UniProt Q08881)"
  IC50: "> 500 nM"
- COMPOUND_STRUCTURE: "C=CC(=O)N1CCC[C@H](Oc2nc(Nc3ncc(C)s3)cc3c2ccn3CCC)C1"
  SUBJECT_OF_TEST: "ITK (Homo sapiens, UniProt Q08881)"
  IC50: "100 to 500 nM"
- COMPOUND_STRUCTURE: "C=CC(=O)N1CC(Oc2nc(Nc3ncc(C)s3)cc3c2ccn3C2CCCC2)C1"
  SUBJECT_OF_TEST: "ITK (Homo sapiens, UniProt Q08881)"
  IC50: "≤ 20 nM"
- COMPOUND_STRUCTURE: "C=CC(=O)N1CC[C@H](Oc2nc(Nc3ncc(C)s3)cc3c2ccn3CC2CCOCC2)C1"
  SUBJECT_OF_TEST: "ITK (Homo sapiens, UniProt Q08881)"
  IC50: "≤ 20 nM"
- COMPOUND_STRUCTURE: "C=CC(=O)N1C[C@@H](Oc2nc(Nc3ncc(C)s3)cc3c2ccn3C(C)C)C[C@@H]1C"
  SUBJECT_OF_TEST: "ITK (Homo sapiens, UniProt Q08881)"
  IC50: "≤ 20 nM"
- COMPOUND_STRUCTURE: "C=CC(=O)N1CCC[C@H]1COc1nc(Nc2ncc(C)s2)cc2c1ccn2CC(C)C"
  SUBJECT_OF_TEST: "ITK (Homo sapiens, UniProt Q08881)"
  IC50: "> 500 nM"
- COMPOUND_STRUCTURE: "C=CC(=O)N1C[C@@H](Oc2nc(Nc3ncc(C)s3)cc3c2ccn3C2CCCC2)C[C@@H]1C"
  SUBJECT_OF_TEST: "ITK (Homo sapiens, UniProt Q08881)"
  IC50: "100 to 500 nM"

Next compound, IC50 to be filled in.
Output IC50 of C=CC(=O)Nc1ccc(F)c(-c2nc(Nc3ncc(C)s3)cc3c2ccn3[C@@H](C)CC)c1
20 to 100 nM
